The reported numbers originate from patent US20250250357A1.

molecular target: T1, human MSLN-R2-his protein (human, UniProt Q13421 391-486); assay: ELISA, coated antigen; no antibody (blank, column 'none')
T1 construct: also called human MSLN-R2 protein; hMSLN-R2-his; not shown: His tag
T1 sequence (Q13421 other isoform, or with tags, fused parts or gaps): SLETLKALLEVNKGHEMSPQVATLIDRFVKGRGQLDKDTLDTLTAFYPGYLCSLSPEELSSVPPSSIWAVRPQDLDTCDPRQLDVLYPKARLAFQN
resultType: OD450 (OD450)
Answer with a number only, understood to be in OD450.

S009-F3.80.22 (antibody, human IgG1, kappa, V domains shown, Human-murine chimeric antibody, human IgG1/kappa constant regions) VH: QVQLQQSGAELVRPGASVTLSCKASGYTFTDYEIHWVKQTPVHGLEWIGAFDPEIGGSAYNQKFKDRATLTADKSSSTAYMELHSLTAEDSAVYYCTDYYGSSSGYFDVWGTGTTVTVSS VL: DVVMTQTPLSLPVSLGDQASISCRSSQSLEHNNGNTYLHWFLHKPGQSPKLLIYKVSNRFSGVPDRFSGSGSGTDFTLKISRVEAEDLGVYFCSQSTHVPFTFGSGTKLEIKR = 0.07

OD450 lookup needed for S009-F3.7.3 (antibody, human IgG1, kappa, V domains shown, Human-murine chimeric antibody: murine VH/VL on human IgG1 heavy chain constant region and human kappa constant region) VH: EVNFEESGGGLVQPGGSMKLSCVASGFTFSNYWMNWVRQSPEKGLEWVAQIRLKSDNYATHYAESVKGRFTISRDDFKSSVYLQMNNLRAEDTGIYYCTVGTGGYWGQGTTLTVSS VL: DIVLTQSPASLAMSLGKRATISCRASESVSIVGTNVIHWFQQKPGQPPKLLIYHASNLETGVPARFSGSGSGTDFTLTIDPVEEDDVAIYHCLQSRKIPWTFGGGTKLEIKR , thanks.
0.08

Follow-up entry: S009-F3.38.10 (antibody, human IgG1, kappa, V domains shown, Human-murine chimeric antibody, human IgG1/kappa constant regions) VH: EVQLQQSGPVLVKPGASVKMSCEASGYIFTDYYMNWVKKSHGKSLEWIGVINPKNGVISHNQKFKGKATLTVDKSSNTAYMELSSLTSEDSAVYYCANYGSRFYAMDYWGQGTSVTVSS VL: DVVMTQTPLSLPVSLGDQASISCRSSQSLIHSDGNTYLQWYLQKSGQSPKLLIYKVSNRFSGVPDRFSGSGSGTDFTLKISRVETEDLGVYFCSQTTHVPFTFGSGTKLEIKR
0.08

Follow-up entry: S009-F3.74.20 (antibody, human IgG1, kappa, V domains shown, Human-murine chimeric antibody, human IgG1/kappa constant regions) VH: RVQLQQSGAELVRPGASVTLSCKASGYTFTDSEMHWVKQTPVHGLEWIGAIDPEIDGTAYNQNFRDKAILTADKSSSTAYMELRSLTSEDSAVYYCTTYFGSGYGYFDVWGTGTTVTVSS VL: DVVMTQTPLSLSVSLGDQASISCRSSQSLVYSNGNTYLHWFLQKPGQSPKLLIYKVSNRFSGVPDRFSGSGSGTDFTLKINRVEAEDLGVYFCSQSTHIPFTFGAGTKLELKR
0.07

Follow-up entry: S009-F3.16.1 (antibody, human IgG1, kappa, V domains shown, Human-murine chimeric antibody, human IgG1/kappa constant regions) VH: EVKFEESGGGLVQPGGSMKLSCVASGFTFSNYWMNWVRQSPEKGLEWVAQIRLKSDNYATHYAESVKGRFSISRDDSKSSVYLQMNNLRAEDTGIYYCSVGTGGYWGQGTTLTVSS VL: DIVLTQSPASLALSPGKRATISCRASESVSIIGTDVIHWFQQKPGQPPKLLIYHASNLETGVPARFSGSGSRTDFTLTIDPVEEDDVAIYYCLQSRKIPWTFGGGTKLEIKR
0.08
